test: Selectivity index, ratio of IC50 for HT-29 cells to IC50 for transgenic DsRed2 Leishmania donovani promastigotes strain LV82; type: toxicity, cell-based; conditions: human; read-out: Ratio IC50
metric: selectivity ratio
Numbers only.

Here is how some molecules turned out for selectivity ratio.
smiles: COc1ccc2cc1Oc1ccc(cc1)C[C@H]1c3cc(OC)c(OC)c(c3CCN1C)Oc1c(OC)c(OC)cc3c1[C@H](C2)N(C)CC3
metric: selectivity ratio
observed.value: 0.5
--
smiles: COc1ccc2cc1Oc1ccc(cc1)C[C@H]1c3cc(OC)c(OC)c(c3CCN1C)Oc1c(O)c(OC)cc3c1[C@H](C2)N(C)CC3
metric: selectivity ratio
observed.value: 3.6

API: the following record is the query input.
Item `COc1ccc2cc1Oc1ccc(cc1)C[C@H]1c3cc(OC)c(OC)c(c3CCN1C)Oc1c(O)c(OC)cc3c1[C@H](C2)NCC3` has what recorded selectivity ratio? 29.3
